Source listed as the RNAGym collection of RNA variant scans (doi:10.7554/elife.80360).

B1: HDV Ribozyme (parent)
chain: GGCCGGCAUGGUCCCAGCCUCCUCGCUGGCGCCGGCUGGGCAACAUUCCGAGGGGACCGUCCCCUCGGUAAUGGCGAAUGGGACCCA

- Variants of: B1
- Run description: self-cleavage, relative activity (ratio to wild type); higher = more cleavage; co-transcriptional
Assign yes to entries whose self-cleavage meets or exceeds 0.3; assign no to the rest.

Example cases with answers are listed next.
GGCCGGCAUGGUCCCAGCCUCCUCGCUGGCGCCGGCUGGGCAACAUUCCGAGGGGACCGUCCCCUCGGUAACGGAGAAUGGGACCCA [U72C C75A] : no
GGCCGGCAUGGUCCCAGCCUCCUCGCUGACGCCGGCUGGGCAACAUUCCGAGGGGGCCGUCCCCUCGGUAAUGGCGAAUGGGACCCA [G29A A56G] : no
GGCCGGCAUGGUCCCAGCCUCCUCGCUGGCGCUGGCUGGGCAACAUUCCGAGGGGACCGUCCCCUCGGUAAUGGCGAAGGGGACCCA [C33U U79G] : yes
GGCCGGCUUGGUCCCAGCCCCCUCGCUGGCGCCGGCUGGGCAACAUUCCGAGGGGACCGUCCCCUCGGUAAUGGCGAAUGGGACCCA [A8U U20C] : no
GGCCGGCAUGGUCCCAGCCUCCUCGCUGGCGCCGGCUGGGCAACAUUCCGAGGGGAGCGUCCCCUCGGUAAUGGCGAAUGGGACCCG [C57G A87G] : yes
GGCCGGCAUGGUCCCAGCCUCCUCGCUGCCGCCGGCUGGGCAACAUUCCGAGGGGACCGUCCCCUCGGUAAUGGCGCAUGGGACCCA [G29C A77C] : no
GGCCGGCAUGGUCCCAGCCUCCUCGCUGCCGCCGGCUGGGCAACAUUCCGAGUGGACCGUCCCCUCGGUAAUGGCGAAUGGGACCCA [G29C G53U] : no
GGCCAGCAUGGUCCCAUCCUCCUCGCUGGCGCCGGCUGGGCAACAUUCCGAGGGGACCGUCCCCUCGGUAAUGGCGAAUGGGACCCA [G5A G17U] : no

Asked: Quick check, self-cleavage >= 0.3? GGCCAGCAUGGUCCCAGCCUCCUCGCUGGCGCCGGCUGGGCAACAUUCCGAGGGGACCGUCCCCUCGGUACUGGCGAAUGGGACCCA [G5A A71C]
Given back: no

Asked: // same read-out, input: GGCCGGCAUGGUCCCAGCCUCCUCGCUGGCGCCGGCUGGGCAACAUUCCGAGGGCACCGUCCCCUCGGUAAUGGCCAAUGGGACCCA [G55C G76C]
Given back: yes
